These entries and their values trace back to ChEMBL document CHEMBL1126251.

- experimental_target: Glycerol-3-phosphate dehydrogenase [NAD(+)], cytoplasmic (Rattus norvegicus)
- Sequence (whole entry): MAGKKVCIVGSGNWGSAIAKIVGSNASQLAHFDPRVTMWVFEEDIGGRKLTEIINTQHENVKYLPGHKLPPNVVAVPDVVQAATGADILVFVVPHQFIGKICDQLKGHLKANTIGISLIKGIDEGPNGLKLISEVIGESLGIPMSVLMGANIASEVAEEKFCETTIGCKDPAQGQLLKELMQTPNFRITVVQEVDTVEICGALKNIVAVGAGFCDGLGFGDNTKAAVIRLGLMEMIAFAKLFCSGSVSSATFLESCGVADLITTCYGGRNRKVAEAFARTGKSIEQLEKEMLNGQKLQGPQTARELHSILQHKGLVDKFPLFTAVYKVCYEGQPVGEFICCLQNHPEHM
- method: Effect on rat hepatic glycerophosphate dehydrogenase alpha (GPD) activity relative to L-T3.
reported_metric: L-T3 (%)
Answers are plain numbers, in %.

Take a look at these entries with their results.
compound: O=C(O)CCc1cc(I)c(Oc2ccc(O)c(I)c2)c(I)c1 [THYROPROPIC ACID]
L-T3 [%]: 43
--
compound: CC(Cc1cc(I)c(Oc2cc(I)c(O)c(I)c2)c(I)c1)C(=O)O (racemic)
L-T3 [%]: 36
--
compound: N[C@@H](Cc1cc(I)c(Oc2ccc(O)c(I)c2)c(I)c1)C(=O)O [LIOTHYRONINE]
L-T3 [%]: 100

QUERY: Provide value of L-T3 for this record tested with Glycerol-3-phosphate dehydrogenase [NAD(+)], cytoplasmic (Rattus norvegicus): CC(Cc1cc(I)c(Oc2ccc(O)c(I)c2)c(I)c1)C(=O)O (racemic)
RESULT: 77

---

- experimental_target: NADP-dependent malic enzyme (Rattus norvegicus)
- method: Effect on rat hepatic Malic enzyme activity 3 days after injection of 10e-6 mol/kg.
reported_metric: ME increase (nM min-1 mg-1)
Answers are plain numbers.

Each compound below has a recorded value; state its ME increase (nM min-1 mg-1).
1. N[C@@H](Cc1cc(I)c(Oc2ccc(O)c(I)c2)c(I)c1)C(=O)O
2. CC(Cc1cc(I)c(Oc2cc(I)c(O)c(I)c2)c(I)c1)C(=O)O (racemic)
3. O=C(O)CCc1cc(I)c(Oc2ccc(O)c(I)c2)c(I)c1

RESULT:
1. 19.5
2. 6.8
3. 5.5

QUERY: Bench note: what ME increase (nM min-1 mg-1) did CC(Cc1cc(I)c(Oc2ccc(O)c(I)c2)c(I)c1)C(=O)O (racemic) show?
RESULT: 13.1

---

- method: In vitro concentration required to displace [125I]L-T3 from rat hepatic nuclei.
reported_metric: Ki (nM)
Give bare numbers, in nM.

molecule: CC(Cc1cc(I)c(Oc2cc(I)c(O)c(I)c2)c(I)c1)C(=O)O (racemic)
value_reported: 13

// next entry
QUERY: Bench note: what Ki did CC(Cc1cc(I)c(Oc2ccc(O)c(I)c2)c(I)c1)C(=O)O (racemic) show?
RESULT: 2.56

---

Consider the following compounds; for each one, report its ME increase (nM min-1 mg-1).
- experimental_target: NADP-dependent malic enzyme (Rattus norvegicus) (UniProt P13697)
- Sequence (P13697 whole entry): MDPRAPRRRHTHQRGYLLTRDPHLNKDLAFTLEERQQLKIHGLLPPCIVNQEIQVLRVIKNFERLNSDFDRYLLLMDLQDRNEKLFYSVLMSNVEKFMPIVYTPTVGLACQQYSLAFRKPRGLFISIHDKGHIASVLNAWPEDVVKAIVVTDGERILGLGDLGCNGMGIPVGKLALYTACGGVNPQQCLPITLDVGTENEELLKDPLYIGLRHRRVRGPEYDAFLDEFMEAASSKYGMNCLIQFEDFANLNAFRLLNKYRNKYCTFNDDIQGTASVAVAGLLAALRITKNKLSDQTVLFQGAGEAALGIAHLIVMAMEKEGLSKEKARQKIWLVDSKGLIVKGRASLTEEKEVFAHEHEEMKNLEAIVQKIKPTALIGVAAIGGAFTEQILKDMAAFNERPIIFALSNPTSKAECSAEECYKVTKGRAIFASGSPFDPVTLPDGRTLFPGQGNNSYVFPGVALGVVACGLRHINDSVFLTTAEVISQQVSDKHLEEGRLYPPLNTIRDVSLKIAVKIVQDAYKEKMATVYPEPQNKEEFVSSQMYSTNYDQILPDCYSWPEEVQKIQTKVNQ
- method: Effect on rat hepatic Malic enzyme activity 3 days after injection of 10e-5 mol/kg.
One number for each entry.

compound: CC(Cc1cc(I)c(Oc2ccc(O)c(I)c2)c(I)c1)C(=O)O (racemic)
ME increase (nM min-1 mg-1): 18.6
--
compound: CC(Cc1cc(I)c(Oc2cc(I)c(O)c(I)c2)c(I)c1)C(=O)O (racemic)
ME increase (nM min-1 mg-1): 14.7
--
compound: O=C(O)CCc1cc(I)c(Oc2ccc(O)c(I)c2)c(I)c1
ME increase (nM min-1 mg-1): 12.9

// next entry
QUERY: Bench note: what ME increase (nM min-1 mg-1) did N[C@@H](Cc1cc(I)c(Oc2ccc(O)c(I)c2)c(I)c1)C(=O)O show?
RESULT: 31.8
